- System: MOLT-4 leukemia
- Assay Protocol: NCI tumour cell line growth inhibition, 48 h; in the data active = GI50 below about 0.43 µM; inactive = the rest
Assign a class; possible classes are YES for active, NO for inactive

Study these solved cases before continuing.
COc1cc2c(cc1OCCCCCCN1CCN(c3ncnc4ccccc34)CC1)N=CC1CCCN1C2=O (centres undefined) : YES
NC1CCCCC1N.O=S(=O)([O-])CCCN1CCOCC1.O=S(=O)([O-])CCCN1CCOCC1.[Pt+4] : NO
COc1ccc(CNc2c3ccccc3nc3ccc(OC)cc23)cc1 : NO

Task: Hello, I am checking results. What call was entered for `Cc1ccc(NC(=O)CC(=O)n2nc(-c3ccccc3)c(N=Nc3ccccc3Cl)c2-c2ccccc2)cc1` ?
Result: NO

Task: Hello, I am checking results. What call was entered for `CC[O-].CC[O-].O=C1C(c2ccccc2)=C([O-])c2ccccc21.O=C1C(c2ccccc2)=C([O-])c2ccccc21.[Ti+4]` ?
Result: NO

Task: Hello, I am checking results. What call was entered for `Cc1cc(N2CCN(c3ccnc4cc(Cl)ccc34)CC2)nc(NC2CCCCC2)n1` ?
Result: NO

Task: Hello, I am checking results. What call was entered for `O=c1[nH]ccc2nc(N3CCC(O)CC3)nc(Nc3cccc(C(F)(F)F)c3)c12` ?
Result: NO

Task: Hello, I am checking results. What call was entered for `COC(=O)c1c2c(c(C)[n+]([O-])c1C)C(=O)C=C(NCc1ccc(OC)cc1)C2=O` ?
Result: NO

Task: Hello, I am checking results. What call was entered for CCC[CH2][Sn]([CH2]CCC)([O]C(=O)C(N)CSC)[O]C(=O)C(N)CSC (centres undefined) ?
Result: NO
